Here the recorded melting point is given for each entry.

Solved cases below.
>>> print(df.to_string())
                       smiles_structure  reported_metric     data_value
0  N#Cc1c(C(F)(F)F)cc(-c2cccs2)[nH]c1=O    melting point  293 to 295 °C
1       NNC(=O)CNS(=O)(=O)c1cccc2nsnc12    melting point  151 to 153 °C

Now for a further compound.
Exercise: // query melting point value for entry `O=C1c2cc3ccccc3cc2C(=O)c2cc3ccccc3cc21`
Key: 391 to 394 °C

----------
Property: melting point; scope: individual compounds

Example entries begin here.
>>> print(df.to_string())
                                   compound  reported_metric     data_value
0                        Brc1nc2ccccc2[nH]1    melting point         200 °C
1  NC(=O)[C@@H]1CCCC[C@@H]1O (relative stereo)    melting point  115 to 119 °C
2      Cc1ccc(/C=N/c2nc(C(F)(F)F)n[nH]2)cc1    melting point  207 to 209 °C

Exercise: What does the data say about its melting point? Entry: `Cc1cc(C)c2c(=O)n(-c3cccc(C(F)(F)F)c3)c(=O)[nH]c2n1`
Key: 264 to 266 °C

Exercise: # melting point lookup, item `O=c1ncn2nc(Sc3ccccc3)ccc2c1-c1c(Cl)cccc1Cl`
Key: 262 to 265 °C

Exercise: Suppose we examine the compound `CC1=NN(c2ccc(C(=O)O)cc2)C(=O)C1` ; what melting point value has been reported?
Key: 284 to 288 °C

Exercise: So what does the record say about melting point for `CSc1nc2ncc(C(=O)O)c(N)n2n1` ?
Key: 278 to 281 °C

Exercise: Find the recorded melting point belonging to OCC1C2C=CC(C2)C1CO (stereo not drawn) and report it.
Key: 85 to 85.5 °C

----------
reported_metric: melting point

Some solved cases for reference:
>>> df
                                   compound  reported_metric     data_value
0                           COc1cscc1C(N)=O    melting point  120 to 121 °C
1  c1cc(-c2csnn2)ccc1OCC1CO1 (stereo unspecified)    melting point    70 to 72 °C
2                    NCCC(c1ccccc1)c1ccccc1    melting point    29 to 31 °C

Exercise: If you can, please state the reported melting point value of CC(C)(C)OC(=O)NC1(C(=O)O)CCc2ccccc21 (racemic) .
Key: 156 to 159 °C

Exercise: // melting point lookup, key: `CCOC(OCC)C(N)=S`
Key: 91 to 94 °C

Exercise: I would be grateful if you could share the reported melting point for `Cc1cc(=O)oc(C)c1C(=O)O` .
Key: 154 to 156 °C

----------
Reported melting point values for the following compounds.

                                   compound     data_value
0    Cc1c(C(=O)O)cc(-c2ccccc2)n1CCCN1CCOCC1  172 to 177 °C
1  COc1cc(CC2C(=O)NC(=N)N2C)ccc1O (stereo not drawn)  231 to 233 °C

Attention now turns to another entry.
Exercise: Find the recorded melting point belonging to `Cc1nc2cc(Cl)ccc2o1` and report it.
Key: 54 to 57 °C
